The entries below are paired with their reported MIC.
tested on: E. coli GC 4560; experiment: MIC, broth microdilution; conditions: Escherichia coli, GC4560, read-out: MINIMAL INHIBITORY CONCENTRATION MIC, pre-incubated in Mouse Serum
ENDPOINT: MIC (mg/L)

{"ENTRY_SMILES": "CCC(C)(C)C(=O)OCOC(=O)N(CC(=O)Nc1cc(N(C)C)c2c(c1O)C(=O)C1=C(O)[C@]3(O)C(=O)C(C(N)=O)=C(O)[C@@H](N(C)C)[C@@H]3C[C@@H]1C2)C(C)(C)C", "MEASUREMENT_UNIT": "mg/L", "EXPERIMENTAL_RESULT": 2}
{"ENTRY_SMILES": "CCCCN(CC(=O)Nc1cc(N(C)C)c2c(c1O)C(=O)C1=C(O)[C@]3(O)C(=O)C(C(N)=O)=C(O)[C@@H](N(C)C)[C@@H]3C[C@@H]1C2)C(=O)OCOC(=O)c1cc(C)cc(C)c1", "MEASUREMENT_UNIT": "mg/L", "EXPERIMENTAL_RESULT": 0.5}
{"ENTRY_SMILES": "CC(C)C(=O)OCOC(=O)N(CC(=O)Nc1cc(N(C)C)c2c(c1O)C(=O)C1=C(O)[C@]3(O)C(=O)C(C(N)=O)=C(O)[C@@H](N(C)C)[C@@H]3C[C@@H]1C2)C(C)(C)C", "MEASUREMENT_UNIT": "mg/L", "EXPERIMENTAL_RESULT": 0.25}
{"ENTRY_SMILES": "CCCN(CC(=O)Nc1cc(N(C)C)c2c(c1O)C(=O)C1=C(O)[C@]3(O)C(=O)C(C(N)=O)=C(O)[C@@H](N(C)C)[C@@H]3C[C@@H]1C2)C(=O)OCOC(=O)c1cccs1", "MEASUREMENT_UNIT": "mg/L", "EXPERIMENTAL_RESULT": 0.5}
{"ENTRY_SMILES": "CCCN(CC(=O)Nc1cc(N(C)C)c2c(c1O)C(=O)C1=C(O)[C@]3(O)C(=O)C(C(N)=O)=C(O)[C@@H](N(C)C)[C@@H]3C[C@@H]1C2)C(=O)OCOC(=O)c1ccc(C(C)(C)C)cc1", "MEASUREMENT_UNIT": "mg/L", "EXPERIMENTAL_RESULT": 0.25}

* * *

test system: S. agalactiae GC 4564; assay: MIC, broth microdilution; conditions: Streptococcus agalactiae, GC4564, S. agalactiae GC 4564; Mouse Serum pre-incubation
The entries below are paired with their reported MIC.
ENDPOINT: MIC (µg/mL)

{"COMPOUND": "CCCN(CC(=O)Nc1cc(N(C)C)c2c(c1O)C(=O)C1=C(O)[C@]3(O)C(=O)C(C(N)=O)=C(O)[C@@H](N(C)C)[C@@H]3C[C@@H]1C2)C(=O)OCOC(=O)C(C)(C)C [Example 9]", "STUDY_SYSTEM": "S. agalactiae GC 4564", "MEASUREMENT_UNIT": "µg/mL", "VALUE_RELATION_SIGN": "=", "EXPERIMENTAL_RESULT": 0.12}
{"COMPOUND": "CCCCN(CC(=O)Nc1cc(N(C)C)c2c(c1O)C(=O)C1=C(O)[C@]3(O)C(=O)C(C(N)=O)=C(O)[C@@H](N(C)C)C3CC1C2)C(=O)OCOC(=O)c1ccc(C)cc1 (some centres unmarked) [Example 3]", "STUDY_SYSTEM": "S. agalactiae GC 4564", "MEASUREMENT_UNIT": "µg/mL", "VALUE_RELATION_SIGN": "=", "EXPERIMENTAL_RESULT": 1}
{"COMPOUND": "CCCN(CC(=O)Nc1cc(N(C)C)c2c(c1O)C(=O)C1=C(O)[C@]3(O)C(=O)C(C(N)=O)=C(O)[C@@H](N(C)C)[C@@H]3C[C@@H]1C2)C(=O)OCOC(=O)c1ccc(C)cc1 [Example 5]", "STUDY_SYSTEM": "S. agalactiae GC 4564", "MEASUREMENT_UNIT": "µg/mL", "VALUE_RELATION_SIGN": "=", "EXPERIMENTAL_RESULT": 0.5}
{"COMPOUND": "CCCN(CC(=O)Nc1cc(N(C)C)c2c(c1O)C(=O)C1=C(O)[C@]3(O)C(=O)C(C(N)=O)=C(O)[C@@H](N(C)C)[C@@H]3C[C@@H]1C2)C(=O)OCOC(=O)C(C)C [Example 10]", "STUDY_SYSTEM": "S. agalactiae GC 4564", "MEASUREMENT_UNIT": "µg/mL", "VALUE_RELATION_SIGN": "<", "EXPERIMENTAL_RESULT": 0.06}
{"COMPOUND": "CCCN(CC(=O)Nc1cc(N(C)C)c2c(c1O)C(=O)C1=C(O)[C@]3(O)C(=O)C(C(N)=O)=C(O)[C@@H](N(C)C)[C@@H]3C[C@@H]1C2)C(=O)OCC [Example 15]", "STUDY_SYSTEM": "S. agalactiae GC 4564", "MEASUREMENT_UNIT": "µg/mL", "VALUE_RELATION_SIGN": "=", "EXPERIMENTAL_RESULT": 8}
